Just for reference, ChEMBL document CHEMBL4513216 is where these values come from.

- Test system: Plasmodium berghei
- Assay Explanation: Screen against P. berghei liver stage (PbLuc), transformed with Luciferase, at 10uM
- Format: functional, HepG2
- Assay Setup: tested at 10 uM
The campaign covered roughly 69,000 compounds. About 8,600 (12%) showed an effect of 50% or more. This is one part of a sample in which strong results are shown more often than they occur.
Metric Name: INHIBITION (%)

INSERT INTO measurements (compound, result) VALUES
  ('NC(=O)c1ccc(N2CCN(Cc3c(Cl)cncc3Cl)CC2)nc1', 30.7),
  ('O=C(Cc1ccc(F)cc1)N1CCN(CC(O)c2ccccc2)CC1 (centres undefined)', 29.7),
  ('CC[C@@H]1N(Cc2ccsc2)CCC[C@]12CCC(=O)N2C', 23.2),
  ('Cc1c(C(=O)N2CCN(C)CC2)n(C)c2ccc(Cl)cc12', 20.9),
  ('CC[C@@H]1N(Cc2ccncc2)CCC[C@]12CCC(=O)N2CCOC', 25.3),
  ('Cc1ccccc1[C@@H]1CN(Cc2c(C)noc2C)C[C@H]1C(=O)O', 2.25),
  ('Cc1ccc(CN2CCC3(CCN(S(=O)(=O)c4ccccc4)C3)C2)o1 (centres undefined)', 56.8),
  ('Cc1ccccc1[C@@H]1CN(Cc2ccc(C(F)(F)F)nc2)C[C@H]1C(=O)O', 59.7),
  ('COc1ccccc1[C@@H]1CN(Cc2ccncc2)C[C@H]1C(=O)O', -21.8),
  ('COC(=O)c1cccc(S(=O)(=O)NC(=O)COC2CCCC2)c1', 15.5),
  ('COc1cc2c(cc1OC)C(=O)C(Sc1nncn1C)C2 (centres undefined)', 6.67),
  ('Cc1ccc(CN2CCCC3(CCN(S(=O)(=O)N(C)C)C3)C2)o1 (centres undefined)', 48.3),
  ('CCn1cc(C(=O)N(C)[C@@H]2CC[C@@H](N3CCCC3)[C@@H]2O)c(C)n1', 12.335),
  ('CCCN1CCC(c2nc3ccc(-c4cccc(F)c4)cn3n2)CC1', 47.5);

###

- Test system: Plasmodium berghei
- Assay Explanation: Screen against P. berghei liver stage (PbLuc), transformed with Luciferase, at 10uM
- Assay type: functional, HepG2
- Assay Setup: tested at 10 uM
The campaign covered roughly 69,000 compounds. About 8,600 (12%) showed an effect of 50% or more. The list comes from a sample in which strong results are over-represented; it also holds close analogues and randomly drawn compounds.
# thresholds on INHIBITION define classes: LOW: < 20%; MEDIUM: ≥ 20% and < 40%; HIGH: ≥ 40%

INSERT INTO results (compound, tested_target, label_value) VALUES
  ('Cc1cccc(-n2ncc3c2CCCC3NCC(C)(C)CO)c1C (stereo not drawn)', 'Plasmodium berghei', 'HIGH'),
  ('CCOCCCNC(=O)CN(c1ccc(F)c(F)c1)S(C)(=O)=O', 'Plasmodium berghei', 'HIGH'),
  ('Cc1nc(Nc2nnc(C)s2)cc(C2CCCN2C(C)C)n1 (stereo not drawn)', 'Plasmodium berghei', 'LOW'),
  ('CCCN(C1CCc2ccccc2C1)S(C)(=O)=O (stereo not drawn)', 'Plasmodium berghei', 'LOW'),
  ('CCCNCc1ccc(-c2ccnc3[nH]ccc23)cc1', 'Plasmodium berghei', 'HIGH'),
  ('CC(C)N1CCc2onc(Cn3cccc3)c2C1', 'Plasmodium berghei', 'LOW'),
  ('Cc1cccc(-n2ncc3c2CCCC3NCc2cnn(C)c2C)c1C (stereo not drawn)', 'Plasmodium berghei', 'MEDIUM'),
  ('Cc1nc2oc(C(=O)N3CCCC3)c(N)c2c2c1CCCC2', 'Plasmodium berghei', 'LOW'),
  ('O=C(NC1CC1)C1CCc2nnc(C3CC3)n21 (stereo not drawn)', 'Plasmodium berghei', 'HIGH'),
  ('Cc1cc(C(=O)NC2CCCc3c2cnn3-c2cccc(C)c2C)[nH]n1 (stereo not drawn)', 'Plasmodium berghei', 'HIGH'),
  ('CC(=O)N1CCCC(c2ccc(Br)cn2)C1 (stereo not drawn)', 'Plasmodium berghei', 'MEDIUM'),
  ('CCc1ccc(C(=O)NCc2cccc(S(=O)(=O)NC)c2)o1', 'Plasmodium berghei', 'LOW'),
  ('CNc1cc(-c2ccc(COCCN)cc2)c2cc[nH]c2n1', 'Plasmodium berghei', 'LOW'),
  ('CC1c2ncc(COCc3ccccn3)n2CCN1C1CCCC1 (stereo not drawn)', 'Plasmodium berghei', 'MEDIUM'),
  ('O=C(NC1CCCC1)N1CCCCC1c1nc(C2CC2)no1 (stereo not drawn)', 'Plasmodium berghei', 'MEDIUM'),
  ('CS(=O)(=O)N1CCOCC2(CCN(Cc3ccc[nH]3)CC2)C1', 'Plasmodium berghei', 'HIGH'),
  ('O=C(Nc1nc(-c2ccccc2)ns1)N1CCC(CO)CC1', 'Plasmodium berghei', 'LOW'),
  ('c1ccc(COC[C@@H]2CCC[C@@]23CNCCO3)nc1', 'Plasmodium berghei', 'HIGH'),
  ('CN1CCOCC2(CCN(Cc3ccc[nH]3)CC2)C1', 'Plasmodium berghei', 'LOW'),
  ('Cc1cc(C(=O)N2C[C@@H]3CC[C@H]2CN(C)C3)ccc1Cl', 'Plasmodium berghei', 'LOW'),
  ('Cc1cc(NC(=O)NC2CCCc3c2cnn3CCO)n(C)n1 (stereo not drawn)', 'Plasmodium berghei', 'LOW'),
  ('COc1ccccc1-n1nc(C(C)C)nc1Cc1nnc(N)s1', 'Plasmodium berghei', 'LOW'),
  ('CN(C)S(=O)(=O)NC1CCCc2c1cnn2-c1ccc(C(C)(C)C)cc1 (stereo not drawn)', 'Plasmodium berghei', 'HIGH'),
  ('O=C(NC1CC1)C1CCc2nnc(-c3cccc(C(F)(F)F)c3)n21 (stereo not drawn)', 'Plasmodium berghei', 'LOW'),
  ('c1ccc(OC[C@@H]2CCC[C@@]23CNCCO3)nc1', 'Plasmodium berghei', 'MEDIUM'),
  ('NC(CC1CCCC1)c1ccccc1 (stereo not drawn)', 'Plasmodium berghei', 'HIGH'),
  ('c1ccc(COC[C@H]2CCC[C@@]23CNCCO3)nc1', 'Plasmodium berghei', 'HIGH'),
  ('FC(F)(F)C1CN(Cc2cccc(-c3ccccn3)c2)CCO1 (stereo not drawn)', 'Plasmodium berghei', 'LOW'),
  ('NC(c1ccccc1)c1ccc(OC(F)F)cc1 (stereo not drawn)', 'Plasmodium berghei', 'MEDIUM'),
  ('CC(C)OCCCNC(=O)CN(c1ccc(F)c(F)c1)S(C)(=O)=O', 'Plasmodium berghei', 'HIGH'),
  ('O=C(Nc1cccc(OCc2cccc(F)c2)c1)C1COCCO1 (stereo not drawn)', 'Plasmodium berghei', 'LOW');

###

- Test system: Plasmodium berghei
- Assay Explanation: Screen against P. berghei liver stage (PbLuc), transformed with Luciferase, at 10uM
- Assay type: functional, HepG2
- Assay Setup: tested at 10 uM
Out of some 69,000 compounds screened, about 8,600 (12%) showed an effect of 50% or more. The list comes from a sample in which strong results are over-represented; it also holds close analogues and randomly drawn compounds.
# Fulfilled = INHIBITION below 10% (exclusive); Not fulfilled = INHIBITION at/above 10%

INSERT INTO measurements (compound, label_value) VALUES
  ('Cc1ccc(Oc2ncccc2C(=O)N(C)CCCN(C)C)c(C)c1', 'Not fulfilled'),
  ('O=C(O)CCC(=O)Nc1nn(Cc2ccc(F)cc2)cc1Cl', 'Not fulfilled'),
  ('CNC(=O)CC1CC2(CCN(CC3CC3)CC2)Oc2ccccc21 (stereo unspecified)', 'Not fulfilled'),
  ('O=S(=O)(Cc1ccc(F)c(Cl)c1)NCCOc1cccnc1', 'Fulfilled'),
  ('Cc1cc(C)c(Cn2cncn2)cc1CN1CC[C@@H]2CC[C@H](C1)N2', 'Not fulfilled'),
  ('Cn1nc(-c2ccccc2)c(Cl)c1C(=O)O', 'Not fulfilled'),
  ('Cc1n[nH]cc1CNC(C)c1cccc(N2CCCC2=O)c1 (stereo unspecified)', 'Fulfilled'),
  ('CS(=O)(=O)N1CC(=O)N(CCCc2ccccc2)CC(O)C1 (stereo unspecified)', 'Not fulfilled'),
  ('Cc1cccc(-n2cnc(Cl)c2C(=O)O)c1', 'Fulfilled'),
  ('Cc1noc(C)c1C(=O)N1CCCN(Cc2nccn2C(C)C)CC1', 'Fulfilled'),
  ('O=C(COc1ccccc1Br)N1CCOc2ccncc21', 'Fulfilled'),
  ('c1cc2nccc(CC3CCCN(Cc4c[nH]cn4)CC3)c2cn1 (stereo unspecified)', 'Not fulfilled'),
  ('c1cc(-c2nnc([C@H]3CCN(C4CCCCC4)C3)o2)ccn1', 'Fulfilled'),
  ('COc1c(CNC2CCCOc3ccccc32)c(C(C)C)nn1C (stereo unspecified)', 'Not fulfilled'),
  ('O=C(Cc1cccc(F)c1)N1CCc2ncnc(NC3CCC3)c2CC1', 'Not fulfilled'),
  ('Clc1ccc2cccnc2c1CN1CCCCC1Cn1cncn1 (stereo unspecified)', 'Not fulfilled'),
  ('CCc1nc2ccccc2n1C(CC)C(=O)N(C)Cc1noc(C)n1 (stereo unspecified)', 'Not fulfilled'),
  ('O=C(COCc1ccccc1)N1CCCn2cncc2C1', 'Not fulfilled'),
  ('O=C(c1cccnc1)N1CCCC(c2ccnc3nccn23)C1 (stereo unspecified)', 'Fulfilled'),
  ('Cc1cc(N2CCN(C(=O)c3cnn(C(C)C)c3)CC2)cc(C)n1', 'Fulfilled'),
  ('COc1cccc(OCC(=O)N2CCOc3ccncc32)c1', 'Fulfilled'),
  ('COCCOCCC(=O)N1CCC(c2ccccc2C)C1 (stereo unspecified)', 'Not fulfilled'),
  ('CCS(=O)(=O)N1CCc2ncnc(OC)c2CC1', 'Not fulfilled'),
  ('CCc1nc2ccccc2n1C(CC)C(=O)N(C)Cc1nc(C)c[nH]1 (stereo unspecified)', 'Not fulfilled'),
  ('Clc1ccc2cccnc2c1CN1CCCC1Cn1cncn1 (stereo unspecified)', 'Not fulfilled'),
  ('COc1ccc(-c2nnc([C@H]3CCN(C4CCC4)C3)o2)cc1', 'Not fulfilled'),
  ('Clc1ccc(CN2CCCC2Cn2cncn2)c2ncccc12 (stereo unspecified)', 'Not fulfilled'),
  ('Cc1ccccc1C1CCN(C(=O)CCNC(=O)C(C)(C)C)C1 (stereo unspecified)', 'Fulfilled'),
  ('COC(=O)c1ccc2c(c1)CCCN2S(=O)(=O)c1cn(C)c(C)n1', 'Fulfilled'),
  ('O=C(c1cc(-n2cccn2)ccn1)N1CCOc2ccncc21', 'Not fulfilled'),
  ('c1cc(-c2nnc([C@H]3CCN(C4CCOCC4)C3)o2)ccn1', 'Not fulfilled');
